- System Under Test: T1, P6-AA-1HAA-E
- T1 chain: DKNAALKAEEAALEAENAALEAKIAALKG
- Measurement Protocol: two-hybrid library CCmax;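 note: natural log of median RNA to DNA barcode read ratio; higher means stronger binding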
- Test Parameters: mean of both orientations
Measurement Name: interaction score

DENAALEAKKAALKAKNAALKAEIAALEG [P5-AA-1HAA-K] ... -0.501
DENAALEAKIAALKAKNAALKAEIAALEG [4H1401-AA] ... 2.01
DENAALEAKRAALKAKNAALKAEIAALEG [P5-AA-1HAA-R] ... -0.332
DENAALEAKLAALKAKNAALKAEIAALEG [P5-AA-1HAA-L] ... 1.45
DENAALEAKSAALKAKNAALKAEIAALEG [P5-AA-1HAA-S] ... -0.781

[I] DENAALEAKAAALKAKNAALKAEIAALEG [P5-AA-1HAA-A]
[II] DENAALEAKVAALKAKNAALKAEIAALEG [P5-AA-1HAA-V]
Which value of interaction score is numerically greater: that of I or that of II ? Kindly give the label for the entry you pick.
II
(II: 2.25, I: -0.184)

[1] DENAALEAKYAALKAKNAALKAEIAALEG [P5-AA-1HAA-Y]
[2] DENAALEAKTAALKAKNAALKAEIAALEG [P5-AA-1HAA-T]
Lower value for measured interaction score? Options: 1 , 2 State your choice using its label.
1
(1: -0.129, 2: 0.317)

// provenance: paper PMC10397247
